Values from ChEMBL document CHEMBL1123014

Test system: Mus musculus
assay-info: In vivo analgesic activity in the mouse tail-flick assay following i.c.v. administration.
Assay type: functional
metric: log10 ED50 (log10 of the value in pmol/mouse)
Transform log10 | Measure ED50 | Unit pmol/mouse

// log10 ED50 value for `CCONC(=O)CC(=O)N[C@H](Cc1ccccc1)NC(=O)[C@@H](C)NC(=O)[C@@H](N)Cc1ccc(O)cc1` : 3.21

// log10 ED50 value for `C[C@@H](NC(=O)[C@@H](N)Cc1ccc(O)cc1)C(=O)N(C)[C@@H](Cc1ccccc1)NC(=O)CNC(=O)Cc1ccccc1` : 2.47

// log10 ED50 value for `C[C@@H](NC(=O)[C@@H](N)Cc1ccc(O)cc1)C(=O)N[C@@H](Cc1ccccc1)C(=O)NCNC=O` : 2.20

// log10 ED50 value for `C[C@@H](NC(=O)[C@@H](N)Cc1ccc(O)cc1)C(=O)N[C@@H](Cc1ccccc1)NC(=O)CC(N)=O` : 2.99

// log10 ED50 value for `C[C@@H](NC(=O)[C@@H](N)Cc1ccc(O)cc1)C(=O)N[C@@H](Cc1ccccc1)C(=O)NCC(=O)NC12CC3CC(CC(C3)C1)C2` : 0.71

// log10 ED50 value for `C[C@@H](NC(=O)[C@@H](N)Cc1ccc(O)cc1)C(=O)N[C@@H](Cc1ccccc1)C(=O)NCNC(=O)C12CC3CC(CC(C3)C1)C2` : 1.04

// log10 ED50 value for CC(C(=O)NCNC(=O)[C@H](Cc1ccccc1)NC(=O)[C@@H](C)NC(=O)[C@@H](N)Cc1ccc(O)cc1)c1ccccc1 (stereo partly drawn) : 1.28

// log10 ED50 value for CC(NC(=O)CC(=O)N[C@H](Cc1ccccc1)NC(=O)[C@@H](C)NC(=O)[C@@H](N)Cc1ccc(O)cc1)c1ccccc1 (stereo partly drawn) : 1.95

----------
assay-info: Half-life was determined
Type: ADME
stated-conditions: human
// no (0) strictly below 60 min in half-life; yes (1) otherwise

Please review the entries below; each comes with its answer.
{"columns": ["molecule", "classification"],
 "data": [
  ["C[C@@H](NC(=O)[C@@H](N)Cc1ccc(O)cc1)C(=O)N[C@@H](Cc1ccccc1)C(=O)NCC(=O)NO", "no (0)"],
  ["C[C@@H](NC(=O)[C@@H](N)Cc1ccc(O)cc1)C(=O)N[C@@H](Cc1ccccc1)NC(=O)CC(=O)NO", "no (0)"],
  ["C[C@@H](NC(=O)[C@@H](N)Cc1ccc(O)cc1)C(=O)N(C)[C@@H](Cc1ccccc1)NC(=O)CNC=O", "no (0)"],
  ["CC(NC(=O)CNC(=O)[C@H](Cc1ccccc1)NC(=O)[C@@H](C)NC(=O)[C@@H](N)Cc1ccc(O)cc1)c1ccccc1 (stereo partly specified)", "no (0)"],
  ["C[C@@H](NC(=O)[C@@H](N)Cc1ccc(O)cc1)C(=O)N[C@@H](Cc1ccccc1)NC(=O)CC(=O)NC12CC3CC(CC(C3)C1)C2", "yes (1)"]
]}

**Query** In plain terms: is recorded half-life at least 60 min for `C[C@@H](NC(=O)[C@@H](N)Cc1ccc(O)cc1)C(=O)N[C@@H](Cc1ccccc1)C(=O)NCNC(=O)C12CC3CC(CC(C3)C1)C2` ?
**Result** yes (1)

**Query** In plain terms: is recorded half-life at least 60 min for `C[C@@H](NC(=O)[C@@H](N)Cc1ccc(O)cc1)C(=O)N[C@@H](Cc1ccccc1)C(=O)NCC(=O)NCc1ccccc1` ?
**Result** no (0)

**Query** In plain terms: is recorded half-life at least 60 min for `C[C@@H](NC(=O)[C@@H](N)Cc1ccc(O)cc1)C(=O)N[C@@H](Cc1ccccc1)C(=O)NCC(N)=O` ?
**Result** no (0)

**Query** In plain terms: is recorded half-life at least 60 min for CC(C(=O)NCNC(=O)[C@H](Cc1ccccc1)NC(=O)[C@@H](C)NC(=O)[C@@H](N)Cc1ccc(O)cc1)c1ccccc1 (stereo partly specified) ?
**Result** yes (1)
